// log10 IC50 lookup, one value per entry
experiment: Cytotoxicity against human RPMI8402 cells after MTT assay; format: functional, cell-based; details: RPMI 8402
Measurement Label: log10 IC50 (log10 of the value in nM)

INSERT INTO results (compound, measurement_label, recorded_measurement) VALUES
  ('COc1cc2c(=O)n(CCN(C)C)c3c4cc5c(cc4ncc3c2cc1OC)OCO5', 'log10 IC50', 0.30),
  ('CC[C@@]1(O)C(=O)OCc2c1cc1n(c2=O)Cc2cc3ccccc3nc2-1 [CAMPTOTHECIN]', 'log10 IC50', 0.78),
  ('CC[C@@]1(O)C(=O)OCc2c1cc1n(c2=O)Cc2cc3c(CN(C)C)c(O)ccc3nc2-1 [TOPOTECAN]', 'log10 IC50', 1.32),
  ('COc1cc2c(=O)n(CCN(CC(F)(F)F)C(C)C)c3c4cc5c(cc4ncc3c2cc1OC)OCO5', 'log10 IC50', 3.28),
  ('COc1cc2c(=O)n(CCN(C)CC(N)=O)c3c4cc5c(cc4ncc3c2cc1OC)OCO5', 'log10 IC50', 0.48);
